target: Bifunctional dihydrofolate reductase-thymidylate synthase (Plasmodium berghei str. ANKA); experiment: In vitro inhibition of dihydrofolate reductase of Plasmodium berghei; conditions: read-out: I50
Sequence (Q27713 whole entry): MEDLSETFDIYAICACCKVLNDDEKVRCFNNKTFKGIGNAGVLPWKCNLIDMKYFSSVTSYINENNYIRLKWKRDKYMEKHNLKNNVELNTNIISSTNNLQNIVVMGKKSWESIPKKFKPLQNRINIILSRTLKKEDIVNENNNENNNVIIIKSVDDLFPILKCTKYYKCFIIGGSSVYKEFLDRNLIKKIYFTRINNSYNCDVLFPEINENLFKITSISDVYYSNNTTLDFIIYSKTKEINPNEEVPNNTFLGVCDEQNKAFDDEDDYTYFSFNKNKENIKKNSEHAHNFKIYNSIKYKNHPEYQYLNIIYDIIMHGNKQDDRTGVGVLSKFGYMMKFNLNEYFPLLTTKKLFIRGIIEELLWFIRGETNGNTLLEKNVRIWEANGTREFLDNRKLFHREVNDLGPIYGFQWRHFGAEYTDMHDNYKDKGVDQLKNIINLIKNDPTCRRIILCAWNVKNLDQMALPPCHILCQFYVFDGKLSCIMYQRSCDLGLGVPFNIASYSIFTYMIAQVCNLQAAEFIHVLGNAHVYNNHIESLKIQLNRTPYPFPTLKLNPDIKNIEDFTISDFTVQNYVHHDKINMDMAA
endpointName: IC50 (nM)
Give a bare numeral; the unit nM is implied.

Inquiry: IC50 for CCc1cc(Cc2cnc(N)nc2N)cc2c1OC(C)C2 (centres undefined) ?
Reply text: 100

Inquiry: IC50 for CCCc1cc(Cc2cnc(N)nc2N)cc2c1OC(C)C2C (centres undefined) ?
Reply text: 12

Inquiry: IC50 for CCCc1cc(Cc2cnc(N)nc2N)cc2c1OC(C)C2 (centres undefined) ?
Reply text: 93

Inquiry: IC50 for `CCCc1cc(Cc2cnc(N)nc2N)cc2c1OC(C)(C)C2` ?
Reply text: 240
